# Test system: 171881-019-R-J1-PDC tumor spheroids, viability;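 also: spheroids exposed to compounds for 7 days; 100% = DMSO vehicle control viability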
# ASSAY_SUMMARY: Anticancer human tumor 171881-019-R-J1-PDC patient-derived invasive breast carcinoma cell line growth inhibition [GQUAD]; active = viability on the fitted dose curve at most 10% of control; inactive = the rest
# CONDITION_DESCRIPTION: second compound 1 µM; first compound 3.16 µM; spheroids with HUVEC and MSC
Assign a class; possible classes are label 1 = active, label 0 = inactive

Q. // param item: C#Cc1c(F)ccc2cc(O)cc(-c3ncc4c(N5CC6CCC(C5)N6)nc(OCC56CCCN5CC(F)C6)nc4c3F)c12 (stereo not given) + CN(C)c1ccc(Nc2c3ccc(NC(=O)CCN4CCCC4)cc3nc3cc(NC(=O)CCN4CCCC4)ccc23)cc1 ; yields the recorded call
A. label 1

Q. Now give it for COc1ncnc(C2CC2)c1-c1ncc2cnn(Cc3ccc(-c4nc(C(F)(F)F)cn4C(C)C)cc3)c2n1 + Cc1cnc(CNC(=O)c2c(=O)c3ccc(N4CCCN(C)CC4)nc3n3c2sc2ccccc23)cn1 too.
A. label 0

Q. Could you do the same for C#Cc1c(F)ccc2cc(O)cc(-c3ncc4c(N5CC6CCC(C5)N6)nc(OCC56CCCN5CC(F)C6)nc4c3F)c12 (stereo not given) + Cc1[nH]c2ccc(F)cc2c1-c1nc2c3cccnc3c3ncccc3c2[nH]1 , please?
A. label 0

Q. Now consider O=C(c1cc(Cc2n[nH]c(=O)c3ccccc23)ccc1F)N1CCN(C(=O)C2CC2)CC1 + Cc1[nH]c2ccc(F)cc2c1-c1nc2c3cccnc3c3ncccc3c2[nH]1 .
A. label 0

Q. Entry to check: CC1COCCN1c1cc(-c2ccnn2C)c2ccnc(-c3ccn[nH]3)c2n1 (stereo not given) + Cc1[nH]c2ccc(F)cc2c1-c1nc2c3cccnc3c3ncccc3c2[nH]1
A. label 1

Q. Now consider O=C(NO)c1cnc(N2CCN(S(=O)(=O)c3ccc4ccccc4c3)CC2)nc1 + Cc1cnc(CNC(=O)c2c(=O)c3ccc(N4CCCN(C)CC4)nc3n3c2sc2ccccc23)cn1 .
A. label 1

Q. Lookup CC(=O)O[C@H]1C(=O)[C@@]2(C)[C@H]([C@H](OC(=O)c3ccccc3)[C@]3(O)C[C@H](OC(=O)[C@H](O)[C@@H](NC(=O)c4ccccc4)c4ccccc4)C(C)=C1C3(C)C)[C@]1(OC(C)=O)CO[C@@H]1C[C@@H]2O + Cc1cnc(CNC(=O)c2c(=O)c3ccc(N4CCCN(C)CC4)nc3n3c2sc2ccccc23)cn1
A. label 0

Q. Next record, please: CC1COCCN1c1cc(C2(O)CC3CCC(C2)O3)c2cnn(-c3ccn[nH]3)c2n1 (stereo not given) + CN(C)c1ccc(Nc2c3ccc(NC(=O)CCN4CCCC4)cc3nc3cc(NC(=O)CCN4CCCC4)ccc23)cc1
A. label 1

Q. Also check Cc1cccc(N(C)C(=O)C2C(O)CCN2c2nc(C)cc(C(F)(F)F)c2C#N)c1 (stereo not given) + CN(C)c1ccc(Nc2c3ccc(NC(=O)CCN4CCCC4)cc3nc3cc(NC(=O)CCN4CCCC4)ccc23)cc1
A. label 0

Q. Let us now turn to Nc1ccn(C2OC(CO)C(O)C2(F)F)c(=O)n1 (stereo not given) + CN(C)c1ccc(Nc2c3ccc(NC(=O)CCN4CCCC4)cc3nc3cc(NC(=O)CCN4CCCC4)ccc23)cc1
A. label 0

Q. Now consider O=c1[nH]cc(F)c(=O)[nH]1 + Cc1cnc(CNC(=O)c2c(=O)c3ccc(N4CCCN(C)CC4)nc3n3c2sc2ccccc23)cn1 .
A. label 0

Q. Please do the same for O=C(NO)c1cnc(N2CCN(S(=O)(=O)c3ccc4ccccc4c3)CC2)nc1 + Cc1[nH]c2ccc(F)cc2c1-c1nc2c3cccnc3c3ncccc3c2[nH]1 as well.
A. label 1

Q. Next: CC1COCCN1c1cc(C2(O)CC3CCC(C2)O3)c2cnn(-c3ccn[nH]3)c2n1 (stereo not given) + Cc1cnc(CNC(=O)c2c(=O)c3ccc(N4CCCN(C)CC4)nc3n3c2sc2ccccc23)cn1
A. label 1

Q. What about COc1ncnc(C2CC2)c1-c1ncc2cnn(Cc3ccc(-c4nc(C(F)(F)F)cn4C(C)C)cc3)c2n1 + CN(C)c1ccc(Nc2c3ccc(NC(=O)CCN4CCCC4)cc3nc3cc(NC(=O)CCN4CCCC4)ccc23)cc1 ?
A. label 1

Q. Repeat with O=C(c1cc(Cc2n[nH]c(=O)c3ccccc23)ccc1F)N1CCN(C(=O)C2CC2)CC1 + Cc1cnc(CNC(=O)c2c(=O)c3ccc(N4CCCN(C)CC4)nc3n3c2sc2ccccc23)cn1
A. label 0

Q. Ok, now CCCS(=O)(=O)Nc1ccc(F)c(C(=O)c2c[nH]c3ncc(-c4ccc(Cl)cc4)cc23)c1F + Cc1cnc(CNC(=O)c2c(=O)c3ccc(N4CCCN(C)CC4)nc3n3c2sc2ccccc23)cn1
A. label 0

Q. Moving on to CCCS(=O)(=O)Nc1ccc(F)c(C(=O)c2c[nH]c3ncc(-c4ccc(Cl)cc4)cc23)c1F + CN(C)c1ccc(Nc2c3ccc(NC(=O)CCN4CCCC4)cc3nc3cc(NC(=O)CCN4CCCC4)ccc23)cc1
A. label 1

Q. Entry CC(C)n1c(=O)n(C)c2cnc3cc(F)c(-c4ccc(OCCCN5CCCCC5)nc4)cc3c21 + CN(C)c1ccc(Nc2c3ccc(NC(=O)CCN4CCCC4)cc3nc3cc(NC(=O)CCN4CCCC4)ccc23)cc1 please
A. label 1

Q. Another: CC1COCCN1c1cc(C2(S(C)(=N)=O)CC2)nc(-c2ccnc3[nH]ccc23)n1 (stereo not given) + CN(C)c1ccc(Nc2c3ccc(NC(=O)CCN4CCCC4)cc3nc3cc(NC(=O)CCN4CCCC4)ccc23)cc1
A. label 1

Q. Another: COc1cc(C2c3cc4c(cc3C(OC3OC5COC(C)OC5C(O)C3O)C3COC(=O)C23)OCO4)cc(OC)c1O (stereo not given) + Cc1[nH]c2ccc(F)cc2c1-c1nc2c3cccnc3c3ncccc3c2[nH]1
A. label 0
